// data source = PubChem BioAssay (Tox21)

assayMethodText: qHTS assay to identify small molecule antagonists of the estrogen receptor alpha (ER-alpha) signaling pathway using the BG1 cell line (AID 743080);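 note: BG1 cells stimulated with 17beta-estradiol alongside compound; nearly all actives have a fitted effect of over 25% in size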; note: potency is the fitted concentration of half-maximal effect
measurementContext: BG1Luc4E2 ERE-luciferase antagonist mode, luminescence; series mostly up to 70.3 µM
Results filed as inconclusive are left out. Active and inactive are the calls of the source. Calls come from the whole dose curve.
attributeMeasured: Potency

Solved entries (count: 6):
| molecule | Potency |
| --- | --- |
| BrCC(Br)(Br)Br | 35.6 µM (active) |
| CC(Cl)CCl (stereo not drawn) | inactive |
| ClC1(Cl)C2(Cl)C3(Cl)C4(Cl)C(Cl)(Cl)C5(Cl)C3(Cl)C1(Cl)C5(Cl)C24Cl (stereo not drawn) | inactive |
| CNC(=O)Oc1cc(C)cc(C(C)C)c1 | inactive |
| O=C1C(Cl)=C(Cl)C(=O)C(Cl)=C1Cl | inactive |
| CC(C)C(Nc1ccc(C(F)(F)F)cc1Cl)C(=O)OC(C#N)c1cccc(Oc2ccccc2)c1 (stereo not drawn) | inactive |

Fill in Potency for each of the 7 molecules listed.
1. Cc1c([N+](=O)[O-])c(C)c([N+](=O)[O-])c(C(C)(C)C)c1[N+](=O)[O-]
2. Oc1cc(Cl)cc(Cl)c1
3. CC(C)Br
4. COP(=S)(OC)Oc1ccc([N+](=O)[O-])c(C)c1
5. CCOP(=S)(OCC)Oc1cc(C)nc(N(CC)CC)n1
6. CN/C(=N\[N+](=O)[O-])NCc1cnc(Cl)s1
7. O=C(Cl)c1ccccc1F

Resp:
["inactive", "inactive", "inactive", "inactive", "34.4 µM (active)", "inactive", "inactive"]

###

assayMethodText: qHTS assay for small molecules that induce genotoxicity in human embryonic kidney cells expressing luciferase-tagged ATAD5 - cell viability (AID 651634); note: nearly all actives have a fitted effect of over 25% in size; note: potency is the fitted concentration of half-maximal effect
measurementContext: HEK293T ATAD5-luc cells viability, CellTiter-Fluor, 15.5 h; series mostly up to 83.3 µM
Inconclusive results are not listed. Activity calls are given as the source filed them. The call rests on the fitted dose curve.
attributeMeasured: Potency

| molecule | result |
| --- | --- |
| O=C1C(Cl)=C(Cl)C(=O)C(Cl)=C1Cl | inactive |
| C#CCC1=C(C)C(OC(=O)C2C(C=C(C)C)C2(C)C)CC1=O (centres undefined) | inactive |
| COCCC#N | inactive |
| N#CCCl | inactive |

// for each molecule below, give its Potency
1. N#Cc1c2ccccc2cc2ccccc12
2. c1ccc(N=NNc2ccccc2)cc1
3. CCOP(=S)(OCC)Oc1cc(C)nc(N(CC)CC)n1
4. NC(=O)C(Cl)Cl
5. Clc1ccc(C(c2ccc(Cl)cc2)C(Cl)Cl)cc1

Resp:
1: inactive; 2: 5.45 µM (active); 3: inactive; 4: inactive; 5: inactive

###

assayMethodText: qHTS assay for identifying genotoxic compounds that show differential cytotoxicity against isogenic chicken DT40 cell lines with known DNA damage response pathways - Rev3 mutant cell line (AID 743014); note: nearly all actives have a fitted effect of over 55% in size; note: potency is the fitted concentration of half-maximal effect
measurementContext: chicken DT40 Rev3-/- viability, CellTiter-Glo, 40 h; series mostly up to 68.4 µM
Inconclusive results are not listed. Calls of active or inactive are those of the source. The call rests on the fitted dose curve; in most records, active means well fitted cell-killing curve with a large enough effect in the repeat runs; inconclusive means weak or mixed curves, or effect the other way; inactive means no such curve, though single readings can be large or run the other way.
attributeMeasured: Potency

Example entries and their recorded answers appear below.
| compound | attributeMeasured | result |
| --- | --- | --- |
| CCC(OC(C)=O)C(CC(C)NC)(c1ccccc1)c1ccccc1 (stereo not drawn) | Potency | 15.5 µM (active) |
| Nc1cc(Cl)ccc1Cl | Potency | inactive |
| [Cl-].[Cl-].[Sn+2] | Potency | inactive |
| COC(=O)c1ccccc1S(=O)(=O)NC(=O)Nc1nc(C)nc(OC)n1 | Potency | inactive |
| N#Cc1sc2c(=O)c3ccccc3c(=O)c=2sc1C#N | Potency | 0.433 µM (active) |

# per-item lookup of Potency; items listed below
1. CNC(=O)/C=C(\C)OP(=O)(OC)OC
2. Cc1cc(C2CC2)nc(Nc2ccccc2)n1
3. O=S(=O)(NS(=O)(=O)C(F)(F)F)C(F)(F)F
4. CCc1cccc(C)c1N(C(=O)CCl)[C@@H](C)COC
5. Oc1ccc2[nH]cc(CCCCN3CC=C(c4ccccc4)CC3)c2c1
6. C1=CCC=C1
7. C=CCOC(=O)c1ccccc1N
8. CCCCCCC[CH2][Sn]([Cl])([Cl])[CH2]CCCCCCC

Resp:
inactive
30.6 µM (active)
inactive
19.3 µM (active)
5.96 µM (active)
inactive
inactive
inactive

###

assayMethodText: qHTS assay to identify small molecule agonists of the estrogen receptor alpha (ER-alpha) signaling pathway in the presence of an antagonist - cell viability counter screen (AID 1259386);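 note: cells exposed to compounds for 22 h at 37 °C before the viability read; nearly all actives have a fitted effect of over 30% in size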
measurementContext: VM7Luc4E2 viability, CellTiter-Fluor fluorescence, 22 h; series mostly up to 92.4 µM
Inconclusive results are not listed. The source made the active and inactive calls. Calls follow the shape of the dose curve; as a rule, active = well fitted cell-killing curve with a large enough effect in the repeat runs; inconclusive = weak or mixed curves, or effect the other way; inactive = no such curve, though single readings can be large or run the other way.
Write down the outcome that applies. Available outcomes: active, inactive

| compound | classAssignment |
| --- | --- |
| CSC1=N[C@@](C)(c2ccccc2)C(=O)N1Nc1ccccc1 | active |
| Nc1cc(Cl)ccc1Cl | inactive |
| N#Cc1sc2c(=O)c3ccccc3c(=O)c=2sc1C#N | active |
| CNC(=O)CSP(=O)(OC)OC | inactive |
| O=S1OCC2C(CO1)C1(Cl)C(Cl)=C(Cl)C2(Cl)C1(Cl)Cl (stereo not given) | inactive |
| O=S(=O)(O)F | inactive |
| CCCCC(CC)COC(=O)OOC(C)(C)C (stereo not given) | inactive |
| O=C(O)CCCCCCNC1c2ccccc2CCc2ccccc21 | inactive |

Note: attention shifts to another entry.
Req: Please let me know the test result on file for CN(C)c1ccc(N)cc1 .
Resp: active

###

assayMethodText: qHTS RealTime-Glo MT Cell Viability Assay in HEK293 cells - 32 hour (AID 1224868); note: nearly all actives have a fitted effect of over 50% in size
measurementContext: RealTime-Glo luminescence; series mostly up to 76.8 µM
Results filed as inconclusive are left out. The source made the active and inactive calls. Calls follow the shape of the dose curve; as a rule, active = well fitted cell-killing curve with a large enough effect in the repeat runs; inconclusive = weak or mixed curves, or effect the other way; inactive = flat fitted curve, though single readings scatter.
Respond using exactly one of the listed classes: true (active), false (inactive)

Look over these answered cases.
| compound | classAssignment |
| --- | --- |
| CCC1(CC)C(=O)N=C(O)NC1=O | false |
| ClC(Cl)C(Cl)(Cl)Cl | false |
| CNC(=O)O/N=C(\C)C(C)S(C)(=O)=O (stereo not drawn) | false |

Req: For N#Cc1sc2c(=O)c3ccccc3c(=O)c=2sc1C#N , what call appears in the results of this test?
Resp: true

Req: I'd appreciate the recorded outcome for Nc1ccccc1-c1ccccc1 from this test.
Resp: false

###

assayMethodText: qHTS RealTime-Glo MT Cell Viability Assay in HepG2 cells - 40 hour (AID 1224870); note: nearly all actives have a fitted effect of over 50% in size
measurementContext: RealTime-Glo luminescence; series mostly up to 76.8 µM
Results filed as inconclusive are left out. The source made the active and inactive calls. The call rests on the fitted dose curve; in most records, active means well fitted cell-killing curve with a large enough effect in the repeat runs; inconclusive means weak or mixed curves, or effect the other way; inactive means flat fitted curve, though single readings scatter.
Pick from y for active, n for inactive when you respond.

| molecule | classAssignment |
| --- | --- |
| N#CSCc1ccccc1 | n |
| CC(Cc1ccccc1)N(C)Cc1ccco1 (stereo unspecified) | n |
| CCNS(=O)(=O)C(F)(F)C(F)(F)C(F)(F)C(F)(F)C(F)(F)C(F)(F)C(F)(F)C(F)(F)F | n |
| c1ccc2nc(N3CCNCC3)ccc2c1 | n |
| Oc1ccc([C@H]2CNCc3c2ccc(O)c3O)cc1O | n |
| C[N+]1(C)[C@@H]2CC[C@H]1CC(OC(=O)C(CO)c1ccccc1)C2 (stereo partly specified) | y |
| CN/C(=N\[N+](=O)[O-])NCc1cnc(Cl)s1 | n |
| C[C@@H]1CC2=CC(=O)CC[C@@H]2[C@H]2CC[C@@]3(C)[C@@H](CC[C@]3(C)O)[C@@H]21 | n |

Req: How was O=c1[nH]c2cc(Cl)ccc2n1C1CCNCC1 classified in this test?
Resp: n

Req: Name the outcome recorded for CC1(C)C(C=C(Cl)Cl)C1C(=O)OC(C#N)c1ccc(F)c(Oc2ccccc2)c1 (stereo unspecified) in the assay.
Resp: n

Req: What is the recorded call for this molecule in the test? c1csc(-c2ccc(-c3cccs3)s2)c1
Resp: n

###

testedSystem: Nuclear receptor subfamily 1 group I member 2 (Homo sapiens) (UniProt O75469)
Sequence (O75469 whole entry, looked up): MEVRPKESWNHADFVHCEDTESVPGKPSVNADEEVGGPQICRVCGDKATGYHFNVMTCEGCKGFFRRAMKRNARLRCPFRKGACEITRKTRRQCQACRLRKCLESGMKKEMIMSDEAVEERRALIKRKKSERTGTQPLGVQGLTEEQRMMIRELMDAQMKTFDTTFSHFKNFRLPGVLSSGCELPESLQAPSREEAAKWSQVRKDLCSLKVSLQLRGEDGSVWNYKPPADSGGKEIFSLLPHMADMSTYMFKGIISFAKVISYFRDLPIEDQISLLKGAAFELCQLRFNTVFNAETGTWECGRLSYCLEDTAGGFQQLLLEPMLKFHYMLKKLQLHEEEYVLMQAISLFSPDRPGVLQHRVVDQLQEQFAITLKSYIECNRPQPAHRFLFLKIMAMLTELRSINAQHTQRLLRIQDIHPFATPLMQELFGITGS
assayMethodText: Human pregnane X receptor (PXR) small molecule agonists, qHTS assay (AID 1346982); note: nearly all actives have a fitted effect of over 35% in size
measurementContext: PXR-Luc HepG2, CYP3A4 luciferase reporter, 24 h; series mostly up to 92.4 µM
Records with an inconclusive call do not appear. Active and inactive are the calls of the source. Calls come from the whole dose curve; as a rule, active = well fitted activation curve with a large enough effect in the repeat runs; inconclusive = weak or mixed curves; inactive = no such curve, though single readings can be large or run the other way.
Permitted responses: YES for active, NO for inactive

Consider the following illustrative entries.
| compound | classAssignment |
| --- | --- |
| CCO/N=C(\CC)C1=C(O)CC(c2c(C)cc(C)cc2C)CC1=O (stereo unspecified) | YES |
| S=C=Nc1ccccc1 | YES |
| CO/N=C(/C1=NOCCO1)c1ccccc1Oc1ncnc(Oc2ccccc2Cl)c1F | YES |
| Clc1ccc(C(c2ccc(Cl)cc2)C(Cl)Cl)cc1 | YES |
| c1ccc2nc(N3CCNCC3)ccc2c1 | NO |
| CC1=C2C[C@H]3[C@@H](CC=C4C[C@@H](O)CC[C@@]43C)[C@@H]2CC[C@]12O[C@@H]1C[C@H](C)CN[C@H]1[C@H]2C | NO |
| Cc1c([N+](=O)[O-])cc2c(c1[N+](=O)[O-])C(C)(C)CC2(C)C | YES |
| CCOP(=S)(OCC)SC(CCl)N1C(=O)c2ccccc2C1=O (stereo unspecified) | YES |

Req: What classification did CCCCCON=O end up with in this test?
Resp: NO

Req: // param item: COCCC#N ; yields the recorded call
Resp: NO

Req: // outcome(item) with item = Clc1ccc(C(Cl)(Cl)Cl)cc1Cl
Resp: YES

Req: Query: recorded result category for CN(C)CCc1c[nH]c2ccccc12 in this test
Resp: NO

Req: Query: recorded result category for CN1[C@@H]2CC[C@H]1CC(O)C2 (stereo partly specified) in this test
Resp: NO

Req: Just curious, what result did COP(=O)(OC)Oc1ccc([N+](=O)[O-])cc1 get here?
Resp: NO

Req: Per the records of this test, what outcome belongs to C#CC1(O)CCCCC1 ?
Resp: NO

Req: Recorded test call requested for Cc1cccc(Cc2cnc[nH]2)c1C
Resp: NO

Req: Check the results log: what was the call for O=S1(=O)OCC2C(CO1)C1(Cl)C(Cl)=C(Cl)C2(Cl)C1(Cl)Cl (stereo unspecified) ?
Resp: YES

Req: What was the test verdict on CNC(=O)CSP(=O)(OC)OC ?
Resp: NO

Req: Hi team, can someone confirm the assay call for CC1(C)[C@H](/C=C2\CCSC2=O)[C@@H]1C(=O)OCc1coc(Cc2ccccc2)c1 ?
Resp: YES

Req: For this compound, state the assay outcome: Cc1cc(C2CC2)nc(Nc2ccccc2)n1
Resp: YES

Req: Hello, I am checking results. What call was entered for N#Cc1ccc(N(CC(N)=O)CC(F)(F)F)cc1C(F)(F)F ?
Resp: NO

Req: I would be grateful if you could indicate the recorded call for Oc1cc(Cl)c(Cl)c(Cl)c1Cl .
Resp: YES

Req: Assay outcome for COC(=O)N(OC)c1ccccc1COc1ccn(-c2ccc(Cl)cc2)n1 : what was it?
Resp: YES

Req: Just curious, what result did CCOP(=S)(NC(C)C)Oc1ccccc1C(=O)OC(C)C (stereo unspecified) get here?
Resp: YES

Req: In this assay, the call recorded for c1ccc2c(c1)cc1ccc3cccc4ccc2c1c34 was what?
Resp: YES

Req: Which outcome was assigned to ClSC(Cl)(Cl)Cl in this test?
Resp: NO
